Values from ChEMBL document CHEMBL1129953

- Assayed target: Monoamine transporters; serotonin & dopamine (Rattus norvegicus) (UniProt P31652+P23977)
- Sequence (P23977 whole entry, looked up): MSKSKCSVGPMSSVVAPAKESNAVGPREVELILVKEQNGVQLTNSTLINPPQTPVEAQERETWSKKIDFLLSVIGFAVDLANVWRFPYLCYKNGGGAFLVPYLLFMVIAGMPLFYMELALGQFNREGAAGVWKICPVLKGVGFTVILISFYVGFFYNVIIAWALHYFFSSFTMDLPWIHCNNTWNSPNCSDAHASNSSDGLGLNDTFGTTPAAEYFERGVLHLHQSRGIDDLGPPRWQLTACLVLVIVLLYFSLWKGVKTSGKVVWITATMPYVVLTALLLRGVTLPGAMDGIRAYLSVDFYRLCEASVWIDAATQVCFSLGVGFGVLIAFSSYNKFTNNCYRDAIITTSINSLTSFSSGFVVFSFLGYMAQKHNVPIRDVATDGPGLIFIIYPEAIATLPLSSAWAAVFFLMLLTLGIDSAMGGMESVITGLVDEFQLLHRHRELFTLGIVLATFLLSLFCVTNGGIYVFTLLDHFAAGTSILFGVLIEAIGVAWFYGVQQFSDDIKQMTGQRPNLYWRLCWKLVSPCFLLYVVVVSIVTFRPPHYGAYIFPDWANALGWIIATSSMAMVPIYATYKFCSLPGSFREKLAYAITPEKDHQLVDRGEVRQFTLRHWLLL
- Sequence (P31652 whole entry, looked up): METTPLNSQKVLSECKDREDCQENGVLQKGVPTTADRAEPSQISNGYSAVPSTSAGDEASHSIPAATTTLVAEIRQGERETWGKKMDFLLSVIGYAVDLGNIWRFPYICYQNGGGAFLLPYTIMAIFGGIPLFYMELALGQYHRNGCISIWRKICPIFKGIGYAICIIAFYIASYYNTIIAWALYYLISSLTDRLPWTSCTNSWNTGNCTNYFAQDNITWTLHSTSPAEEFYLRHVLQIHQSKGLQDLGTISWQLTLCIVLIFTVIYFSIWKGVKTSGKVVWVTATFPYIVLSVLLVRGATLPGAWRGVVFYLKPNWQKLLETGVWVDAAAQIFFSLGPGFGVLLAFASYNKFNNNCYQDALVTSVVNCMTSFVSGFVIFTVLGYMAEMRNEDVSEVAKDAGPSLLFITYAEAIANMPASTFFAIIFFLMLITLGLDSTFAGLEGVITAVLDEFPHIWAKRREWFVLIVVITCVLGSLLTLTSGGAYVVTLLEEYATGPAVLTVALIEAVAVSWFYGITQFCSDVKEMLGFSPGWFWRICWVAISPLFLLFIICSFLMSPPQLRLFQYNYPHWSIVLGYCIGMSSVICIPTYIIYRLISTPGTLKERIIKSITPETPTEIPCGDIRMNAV
- Protocol summary: Ratio of binding affinity on SERT with respect to DA
- Type: protein assay
Hi, to clarify the labels: 1 (yes) covers Ratio from 60 upward, 0 (no) covers anything below 60.

Req: Dear colleague, could you confirm whether "c1ccc(C(OCCN2CCN(CCCc3nc4ccccc4[nH]3)CC2)c2ccccc2)cc1" has Ratio at or above 60?
Resp: 0 (no)

Req: Is it the case that "Fc1ccc(C(OCCN2CCN(Cc3ccc4ncccc4c3)CC2)c2ccc(F)cc2)cc1" has Ratio reaching or exceeding 60?
Resp: 0 (no)

Req: // inclusive: Ratio at least 60? input: "Fc1ccc(C(OCCN2CCN(C/C=C/c3ccco3)CC2)c2ccc(F)cc2)cc1"
Resp: 1 (yes)

Req: Does the reported Ratio for "C(=C\c1ccco1)/CN1CCN(CCOC(c2ccccc2)c2ccccc2)CC1" fall at or above the 60 mark?
Resp: 1 (yes)

Req: Hi, just wondering whether "c1ccc(C(OCCN2CCN(Cc3cc4ccccc4o3)CC2)c2ccccc2)cc1" shows Ratio of 60 or higher.
Resp: 1 (yes)

Req: Does the reported Ratio for "c1ccc(C(OCCN2CCN(Cc3cc4ccccc4[nH]3)CC2)c2ccccc2)cc1" fall at or above the 60 mark?
Resp: 1 (yes)

Req: Test whether the compound "Fc1ccc(C(OCCN2CCN(CCCc3ccco3)CC2)c2ccc(F)cc2)cc1" records Ratio of 60 or higher.
Resp: 0 (no)

Req: Answer whether Ratio of "Fc1ccc(C(OCCN2CCN(CCCc3nc4ccccc4[nH]3)CC2)c2ccc(F)cc2)cc1" is greater than or equal to 60.
Resp: 0 (no)

Req: Is it the case that "Fc1ccc(C(OCCN2CCN(Cc3cc4ccccc4[nH]3)CC2)c2ccc(F)cc2)cc1" has Ratio reaching or exceeding 60?
Resp: 1 (yes)
